Molecular target: Methionine aminopeptidase (Escherichia coli K-12, UniProt P0AE18)
Sequence (P0AE18 whole entry): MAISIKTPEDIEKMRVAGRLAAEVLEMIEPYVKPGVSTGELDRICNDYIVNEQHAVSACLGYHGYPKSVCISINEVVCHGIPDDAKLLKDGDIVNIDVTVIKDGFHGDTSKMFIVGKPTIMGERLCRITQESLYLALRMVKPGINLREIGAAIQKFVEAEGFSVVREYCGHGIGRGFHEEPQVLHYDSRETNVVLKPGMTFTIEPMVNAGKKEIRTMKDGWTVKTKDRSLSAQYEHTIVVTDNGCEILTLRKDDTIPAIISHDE
Experiment: Inhibitory activity against Co(II) form of Escherichia coli MetAP
We label by threshold. Values of IC50 strictly beneath 60 µM are Fulfilled. Values of 60 µM and up are Not fulfilled.

stdin: Quick check: does C#CCOc1ccccc1-c1ccc(C(=O)O)o1 have IC50 under 60 µM?
stdout: Not fulfilled

stdin: Does the reported IC50 of O=C(O)c1ccc(-c2ccc(Cl)cc2)o1 stay below 60 µM?
stdout: Not fulfilled

stdin: Is IC50 of O=C(O)c1ccc(-c2ccccc2[N+](=O)[O-])o1 strictly below 60 µM?
stdout: Not fulfilled

stdin: In plain terms, does COc1ccc([N+](=O)[O-])cc1-c1ccc(C(=O)O)o1 come in under 60 µM for IC50?
stdout: Fulfilled

stdin: Lab log: compare recorded IC50 with 60 µM; is it strictly lower for CONC(=O)c1ccc(-c2ccccc2Cl)o1 ?
stdout: Fulfilled

stdin: # strict comparison: is reported IC50 < 60 µM? input = O=C(O)c1ccc(-c2ccccc2C(=O)O)o1
stdout: Not fulfilled
